target: human CD40 on cells (human, UniProt P25942 21-277); test: cell-based or functional assay
Sequence (P25942 21-277 limits assumed): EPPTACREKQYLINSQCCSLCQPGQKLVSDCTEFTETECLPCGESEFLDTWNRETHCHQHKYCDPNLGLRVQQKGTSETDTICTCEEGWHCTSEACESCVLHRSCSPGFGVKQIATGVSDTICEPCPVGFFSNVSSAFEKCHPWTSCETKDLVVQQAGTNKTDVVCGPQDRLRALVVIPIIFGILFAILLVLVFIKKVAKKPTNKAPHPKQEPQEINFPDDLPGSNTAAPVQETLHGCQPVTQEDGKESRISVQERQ
Measured human B cell proliferation, no crosslinking, % Max Activity, listed per entry.
quantity.name: human B cell proliferation, no crosslinking, % Max Activity (%)

- binder: "29H10 (antibody, V domains shown, also called 4877-1) VH: QVQLVQSGAEVTKPGASVKVSCKASGYTFAGYYMHWVRQAPGQGLEWMGWINPHSGGTNYAQKFQDRVTMTRDTSINTAYMELSRLRSDDTAVYYCARERISMVRGVGHNWFAPWGQGTLVTVSS VL: DIQMTQSPSSLSASVGDRVTITCRASQDISNNLAWFQQKPGKPPKSLMYAASSLHSGVPSTFSGSGSGTDFTFTISSLQPEDFATYYCQQYNSYPLTFGGGTKVEIRR"
  unit.string: "%"
  obs.value: 4.4
- binder: "35F11 (antibody, IgG4, V domains shown, also called 4868-1) VH: QVQLVESGGGVVQPGRSLRLSCAASGFTLSSYGMHWVRQAPGKGLEWVAVIWYDGSNKYYADSVKGRVTISRDNSKNTLYLQMNSLRAEDTAVYYCTRDGRNYVYFDNWGQGTLVTVSS VL: QSALTQPRSVSGSPGQSVTISCTGTSSDVGGYIFVSWYQQHPGKAPKLMIYDVSKRPSGVPDRFSGSKSVNTASLTISGLQAEDETDYYCCSYAGNYTYVFGTGTKVTVLG"
  unit.string: "%"
  obs.value: 4.4
- binder: "33H6 (antibody, IgG4, V domains shown, also called 4883-1) VH: QVQLVQSGAEVKKPGASVKVSCKASGYTFPGYYMYWLRQAPGQGLEWMGWINPDSGDTNYAQKFQGRVTMTRDTSISTAFMELSRLRSDDTAVYYCAREKPRYFDSFYYYLMDVWGQGTTVTVSS VL: DIQMTQSPSSLSASVGDRVTITCRAGQNISRHLNWYQQNPGKAPKVLIHPASSLPSGVPSRFSGSGSGTDFSLTISSLQPEDFGTYFCQQSYSTPPTFGGGTKVELKR"
  unit.string: "%"
  obs.value: 6.5
- binder: "33H9 (antibody, IgG4, V domains shown, also called 4897-1) VH: QVQLVESGGGVVQPGRSLRLSCAASGFTFSSHGMHWVRQPPGKGLEWVAVIWYDGSNEYYGDSVKGRFTISRDNSKNTLYLQMNSLRVEDTAVYYCTRGGGHWNYEGHYYGMDVWGQGTTVTVSS VL: QAVPTQPSSLSASPGASASLTCTLRSGINVGSSRIYWYQQKPGSPPQFLLRYTSDSDKLQGSGVPSRFSGSKDASANAGLLLISGLQSEDEADYYCMIWHSSAVVFGGGTKLTVLG"
  unit.string: "%"
  obs.value: 2.3
- binder: "37A6 (antibody, IgG4, V domains shown, also called 4865-1) VH: QVQLVESGGGLVKPGGSLRLSCAASEFTFSDYYMSWIRQAPGKGLEWVSYISRSGDTIYYADSVKGRFTISRDNAKNSLYLQMNGLRAEDTAVYYCARDLAAGATGGLDCWGQGTLVTVSS VL: SYELTQPPSVSVSPGQTASITCSGERLGNKYICWYQQKPGQSPVLVIYQDFKRPSGIPERFSGSNSGITATLTISGTQAMDEADYYCQAWDSRTVVFGGGTKLTVLG"
  unit.string: "%"
  obs.value: 0.4
